Source of measurements: PubChem BioAssay

experiment: change in splice reporter luminescence, either direction, cell-based, HEK293, spliceosome inhibition project, primary screen (AID 1101); settings: HEK293 splicing luciferase reporter, 24 h, higher = more signal, called active from +8 up or from −8 down;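 also: HEK293 cells carrying a splicing-competent luciferase reporter gene; test concentration not given here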
Returns Yes if the recorded z-score is greater than or equal to 0.3, and No otherwise.

- MOLECULE: "C[N+](C)(C)CCCC[C@@H]1NC(=O)[C@@H]2C[C@H](C(=O)NCCCCCCNC(=O)CS)[C@H](c3ccc(O)cc3)N2C1=O"
  LABEL CLASS: "No"
- MOLECULE: "[N-]=[N+]=Nc1ccccc1[C@H]1OC(c2ccc(OCCCO)cc2)=N[C@@]1(Cc1ccccc1)C(=O)N1CCOCC1"
  LABEL CLASS: "Yes"
- MOLECULE: "C=CCNC(=O)[C@H]1[C@@H]2C(=O)O[C@@H](c3ccccc3)[C@@H](c3ccccc3)N2[C@@H](c2ccc(OCCO)cc2)[C@]12C(=O)Nc1ccc(C#CCC(C(=O)OC)C(=O)OC)cc12"
  LABEL CLASS: "No"
- MOLECULE: "Cc1ccc(S[C@]2(C(=O)O)CC(=O)N(C(C)C)[C@@H]2c2ccc(CO)cc2)cc1"
  LABEL CLASS: "No"
- MOLECULE: "C=C[C@H](C)[C@@H](OC(=O)Nc1ccc(SC)cc1)c1ccc(O)c2ccccc12"
  LABEL CLASS: "No"

Task: State whether the measured z-score reaches 0.3, counting equality as reaching it, for CN1C(=O)C2C=CC(C(O)c3ccc(F)cc3)N(N(c3ccccc3)c3ccccc3)C2C1=O (configuration not stated)
Output: Yes

###

test: resazurin metabolic signal in HepG2 cells – cell-based, resazurin fluorescence, 24 h, PK04 Diversity Set, profiling panel (AID 1172); details: HepG2 viability, higher = more signal; also: test concentration not given here
z-score values, listed per item
Output spec: single numeric token, no unit.

Task: Give z-score for the following compound: CC(C)[C@@H](C(=O)O)n1cc(C2(O)CCCCC2)nn1
Output: 0.853

Task: Give z-score for the following compound: CC(=O)n1cc(C(O)C2C=CC3C(=O)NC(=O)C3N2Nc2ccccn2)c2ccccc21 (configuration not stated)
Output: -1.3

Task: Give z-score for the following compound: COC(=O)C[C@H]1O[C@@H](CCc2ccccc2)[C@@H](C)[C@@H]1[Si](C)(C)c1ccc(OC)cc1
Output: 0.294

Task: Give z-score for the following compound: OCC1C=C(/C=C/c2ccccc2)CN1Cc1ccccc1Br (configuration not stated)
Output: 0.233

Task: Give z-score for the following compound: O=C1OCCC=C[C@H]2OC34C=CCN(c5ccc(Cl)cc5)C(=O)[C@H]3N(CCCO)C(=O)[C@@H]4C12 (some centres not stated)
Output: -0.281

Task: Give z-score for the following compound: C=C(CCCC)/C(=C/C[C@H](OC(C)=O)c1ccccc1OCCO)c1cnc2ccccc2c1
Output: -0.671

###

composite z-score values, listed per item
test system: Inhibin beta A chain (activin A); assay: small molecules binding activin A – biochemical, small-molecule microarray, 635 nm fluorescence scan, primary screen (AID 1107); conditions: INHBA, higher = more signal;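 also: mouse activin A protein probed at 4.33 µg/mL on printed slides; score merges bound-protein fluorescence near 667 nm with spot signal-to-noise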

- COMPOUND: "O=C1O[C@H](c2ccccc2)[C@H](c2ccccc2)N2[C@H]1[C@@H](C(=O)N1CCN(c3ncccn3)CC1)[C@]1(C(=O)Nc3ccc(C#CC4=CCCCC4)cc31)[C@H]2c1ccccc1OCCO"
  composite z-score: 1.08
- COMPOUND: "C=CC1c2cc(O)c(OC)cc2CCN1Cc1cccc(OC(F)(F)F)c1 (centres undefined)"
  composite z-score: 1.64
- COMPOUND: "COC(=O)[C@@]1(Cc2ccc(OC)cc2)[C@H]2c3cc(C(=O)N(C)C)n(Cc4ccc(C(F)(F)F)nc4)c3C[C@H]2CN1C(=O)c1ccccc1"
  composite z-score: 0.663
- COMPOUND: "COC(=O)c1c(CC[C@@H](CO)NC(=O)N[C@H](Cc2ccccc2)Cn2cc(-c3ccccn3)nn2)oc(C(C)=O)c1C(=O)OC"
  composite z-score: -0.285
- COMPOUND: "C=CCOC(=O)[C@H]1[C@@H]2C(=O)O[C@@H](c3ccccc3)[C@@H](c3ccccc3)N2[C@@H](c2ccc(OCCOC(=O)[C@H]3C[C@H]4C(=O)N[C@@H](CCCCN(C)C)C(=O)N4[C@H]3c3cccc(OCCO)c3)cc2)[C@]12C(=O)Nc1ccc(I)cc12"
  composite z-score: 1.11

Task: Give composite z-score for the following compound: C[N+](C)(C)CCCC[C@@H]1NC(=O)[C@H]2C[C@@H](C(=O)NCCCCCCNC(=O)CS)[C@@H](c3ccc(O)cc3)N2C1=O
Output: 0.507

Task: Give composite z-score for the following compound: [N-]=[N+]=Nc1ccccc1C[C@@]1(C(=O)N2CCCCC2)N=C(c2ccc(OCCCO)cc2)O[C@@H]1c1ccccc1
Output: 0.803

Task: Give composite z-score for the following compound: COC(=O)[C@@]1(Cc2ccc(OC)cc2)[C@H]2c3cc(C(=O)N4CCCC4)n(CCSCCO)c3C[C@H]2CN1C(=O)c1ccccc1
Output: 0.435

Task: Give composite z-score for the following compound: CC(c1ccccc1)C(O)C1C=CC2C(=O)N(C)C(=O)C2N1NC(=O)OC(C)(C)C (centres undefined)
Output: 0.633

Task: Give composite z-score for the following compound: CC(C)[C@@H](C(=O)O)n1cc(C2(O)CCCCC2)nn1
Output: -0.352

Task: Give composite z-score for the following compound: CN(C)CCCC[C@@H]1NC(=O)[C@H]2C[C@@H](C(=O)NCCCCCN)[C@@H](c3cccc(OCCO)c3)N2C1=O
Output: 1.41

Task: Give composite z-score for the following compound: O=C(CS)NCCCCCNC(=O)[C@@H]1C[C@@H]2C(=O)NCC(=O)N2[C@@H]1c1cccc(OCCO)c1
Output: 0.501

Task: Give composite z-score for the following compound: COCCCNC(=O)[C@@]1(Cc2ccccc2CN=[N+]=[N-])N=C(c2ccc(OCCCO)cc2)O[C@H]1c1ccccc1CN=[N+]=[N-]
Output: 0.849

Task: Give composite z-score for the following compound: CC(C)NC(=O)[C@@H]1c2ccccc2C(=O)N(C(C)C)[C@H]1c1ccc(CO)cc1
Output: -0.751
